Below, each entry is listed alongside its reported z-score.
# ASSAY_NOTES: blockers of DNA damage checkpoint Chk1 activation – imaging, HeLa, hydroxyurea, phospho-Chk1 antibody, percent positive cells, primary screen (AID 1186)
# COND: hydroxyurea-induced phospho-Chk1 immunofluorescence imaging, higher = more signal
Give the figure only, with no unit attached.

Some solved cases for reference:
C=CCN1C(=O)[C@]2(COC(c3ccc(OCCCO)cc3)=N2)Cc2ccccc21    -0.455
COCCOC(=O)N1C(=O)[C@@]2(c3cc(C#CC4(O)CCCCCC4)ccc31)[C@H](c1ccc(O)cc1)N1[C@H](c3ccccc3)[C@H](c3ccccc3)OC(=O)[C@H]1[C@@H]2C(=O)N1CCc2cc(OC)c(OC)cc2C1    -0.404
C=CCOC(=O)[C@H]1[C@@H]2C(=O)O[C@@H](c3ccccc3)[C@@H](c3ccccc3)N2[C@@H](c2ccc(OCCOC(=O)[C@H]3C[C@H]4C(=O)N[C@@H](CCCC[N+](C)(C)C)C(=O)N4[C@H]3c3ccc(O)cc3)cc2)[C@]12C(=O)Nc1ccccc12    -0.179
COCC1=C([C@H](O)CCc2ccccc2)[C@H](CO)[C@@H]2C(=O)N(Cc3ccccc3)C(=O)[C@@H]2C1    -0.955
C=CCNC(=O)[C@H]1[C@@H]2C(=O)O[C@@H](c3ccccc3)[C@@H](c3ccccc3)N2[C@@H](c2ccc(OCCO)cc2)[C@]12C(=O)N(C(=O)OCCOC)c1ccc(C#CC3(O)CCCCCC3)cc12    -0.124

The recorded z-score for entry COc1ccc(C(=O)Nc2cccc(CN3C(=O)[C@@]4(O[C@@H](CCn5cc([C@H](O)c6ccccc6)nn5)[C@H]([Si](C)(C)c5ccc(OC)cc5)[C@H]4C)c4ccccc43)c2)cc1 equals -0.694

The recorded z-score for entry COc1ccc([Si](C)(C)[C@@H]2[C@@H](CCn3cc([C@H](O)c4ccccc4)nn3)O[C@]3(C(=O)N(C)c4ccccc43)[C@H]2C)cc1 equals 0.131

The recorded z-score for entry CCN(CC)c1ccc(N2CC=CC34O[C@@H]5C=CCCOC(=O)C5[C@H]3C(=O)N(CCCO)[C@@H]4C2=O)cc1 (stereo partly specified) equals -0.28

* * *

# ASSAY_NOTES: probe aLefty1 binding on compound microarray – biochemical, small-molecule microarray, 635/667 nm fluorescence, primary screen (AID 1153);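 further: score merges spot fluorescence with signal-to-noise ratio from the scanned slide images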
# COND: higher = more signal
# composite z-score >= 0.1 gives true (1), anything below gives false (0)

The examples below pair each entry with its known result.
CCCC[C@@H]1C[C@H]1[C@@H](NC(=O)c1ccccc1)c1ccc(-c2ccccc2)cc1    true (1)
COCCOC(=O)N1C(=O)[C@@]2(c3ccccc31)[C@H](C(=O)N1CCCCCCC1)[C@H]1C(=O)O[C@H](c3ccccc3)[C@H](c3ccccc3)N1[C@@H]2c1ccccc1OCCO    true (1)
C=CC[C@@]1(C(N)=O)N=C(c2ccc(OCCCO)cc2)O[C@@H]1c1ccccc1N=[N+]=[N-]    true (1)
CN(C)CCCCNC(=O)[C@@H]1C[C@@H]2C(=O)N[C@@H](CCCCN)C(=O)N2[C@@H]1c1cccc(OCCO)c1    true (1)
COC(=O)[C@@]1(Cc2ccc(OC)cc2)[C@H]2c3cc(C(=O)N(C)C)n(CCSCCO)c3C[C@H]2CN1C(=O)c1ccccc1    false (0)

Please turn your attention to the following entry.
Query block: Does the molecule COc1ccc(C(=O)Nc2cccc(CN3C(=O)[C@@]4(O[C@@H](CC(=O)N5Cc6ccccc6C[C@H]5CO)[C@H]([Si](C)(C)c5ccc(OC)cc5)[C@H]4C)c4ccccc43)c2)cc1 have recorded composite z-score that is 0.1 or more?
Result block: true (1)

The measured values listed here are drawn from PubChem BioAssay.
